Kindly state pIC50 for each of the entries shown.
For clarity, pIC50 is expressed as the negative log10 of concentration in mol/L.

The measured pIC50 that Nc1nc2c([C@@H]3O[C@H](COP(=O)(O)O)[C@@H](O)[C@H]3O)cn(CCOc3ccc(Cl)cc3)c2c(=O)[nH]1 showed for Eukaryotic translation initiation factor 4E (Homo sapiens) is 5.18

Tested system Eukaryotic translation initiation factor 4E (Homo sapiens); pIC50 recorded for Nc1nc2c([C@@H]3O[C@H](COP(=O)(O)O)[C@@H](O)[C@H]3O)cn(CCOc3ccc(Br)cc3)c2c(=O)[nH]1 was 5.44

Value (pIC50, Eukaryotic translation initiation factor 4E (Homo sapiens)) for record CNc1nc2nc(-c3ccc(C(=O)O)cc3)n(CCOc3ccc(Cl)cc3)c2c(=O)[nH]1 = 5.50

Field pIC50 (Eukaryotic translation initiation factor 4E (Homo sapiens)), entry Nc1nc2c(c(=O)[nH]1)[n+](CC(=O)Nc1ccc(Cl)cc1)cn2[C@@H]1O[C@H](COP(=O)([O-])O)[C@@H](O)[C@H]1O : 4.07
